test system: HepG2; test: Cytotoxicity against human HepG2 cells after 3 days by MTT assay; assay type: functional, cell-based; conditions: HepG2, 72 h
pIC50: −log10 of the molar value.
Quick reference for pIC50 among some compounds
Metric: pIC50

{"columns": ["Compound", "Measured value"],
 "data": [
  ["COc1cc(OCC(O)CO)c2c(c1)O[C@@H]1COc3cc(OC)c(OC)cc3[C@]1(O)C2=O (mixture of isomers)", "< 4.00"],
  ["COc1cc(O)c2c(c1)O[C@@H]1COc3cc(OC)c(OC)cc3[C@]1(O)C2=O", "< 4.00"],
  ["COCC(O)COc1cc(OC)cc2c1C(=O)[C@@]1(O)c3cc(OC)c(OC)cc3OC[C@H]1O2 (mixture of isomers)", "< 4.00"],
  ["COc1cc(OCC(O)CNCC(O)c2ccccc2)c2c(c1)O[C@@H]1COc3cc(OC)c(OC)cc3[C@]1(O)C2=O (mixture of isomers)", "< 4.00"],
  ["COc1cc(OCC(O)CCl)c2c(c1)O[C@@H]1COc3cc(OC)c(OC)cc3[C@]1(O)C2=O (mixture of isomers)", 6.09],
  ["COc1cc(OCC(O)CN2CCC(=O)CC2)c2c(c1)O[C@@H]1COc3cc(OC)c(OC)cc3[C@]1(O)C2=O (mixture of isomers)", "< 4.00"],
  ["COc1cc(OCC(O)CNCCN2CCOCC2)c2c(c1)O[C@@H]1COc3cc(OC)c(OC)cc3[C@]1(O)C2=O (mixture of isomers)", 6.25]
]}

---

assay: Cytotoxicity against human ChaGo cells after 3 days by MTT assay; assay type: functional, cell-based; settings: 72 h
pIC50: −log10 of the molar value.
Metric: pIC50

{"columns": ["Molecule", "Measured value"],
 "data": [
  ["COc1cc(OCC(O)CNCC(O)c2ccccc2)c2c(c1)O[C@@H]1COc3cc(OC)c(OC)cc3[C@]1(O)C2=O (mixture of isomers)", "< 4.00"],
  ["COc1cc(OCC(O)CN(CCO)CCO)c2c(c1)O[C@@H]1COc3cc(OC)c(OC)cc3[C@]1(O)C2=O (some centres not stated)", "< 4.00"],
  ["COc1cccc2c1C(=O)c1c(O)c3c(c(O)c1C2=O)C[C@@](O)(C(=O)CO)C[C@@H]3O[C@H]1C[C@H](N)[C@H](O)[C@H](C)O1 [DOXORUBICIN]", 6.08],
  ["COc1cc(OCC2CO2)c2c(c1)O[C@@H]1COc3cc(OC)c(OC)cc3[C@]1(O)C2=O (mixture of isomers)", 6.24],
  ["COc1cc(OCC(O)CN2CCC(=O)CC2)c2c(c1)O[C@@H]1COc3cc(OC)c(OC)cc3[C@]1(O)C2=O (mixture of isomers)", "< 4.00"],
  ["COc1cc(O)c2c(c1)O[C@@H]1COc3cc(OC)c(OC)cc3[C@]1(O)C2=O", "< 4.00"],
  ["COc1cc(OCC(O)CO)c2c(c1)O[C@@H]1COc3cc(OC)c(OC)cc3[C@]1(O)C2=O (mixture of isomers)", "< 4.00"]
]}

---

tested on: Nucleic Acid; test: Binding affinity to calf thymus DNA assessed as change in melting temperature; assay type: nucleic-acid assay; conditions: Bos taurus
Quick reference for ΔTm among some compounds

{"columns": ["Compound", "Quantity unit", "ΔTm"],
 "data": [
  ["COc1cc(OCC(O)CN2CCOCC2)c2c(c1)O[C@@H]1COc3cc(OC)c(OC)cc3[C@]1(O)C2=O (mixture of isomers)", "°C", 7.8],
  ["COc1cc(OCC(O)CNCCN2CCOCC2)c2c(c1)O[C@@H]1COc3cc(OC)c(OC)cc3[C@]1(O)C2=O (mixture of isomers)", "°C", 8.8],
  ["COc1cc(OCC2CO2)c2c(c1)O[C@@H]1COc3cc(OC)c(OC)cc3[C@]1(O)C2=O (mixture of isomers)", "°C", 2],
  ["COc1cc(OCC(O)CNCc2ccccc2)c2c(c1)O[C@@H]1COc3cc(OC)c(OC)cc3[C@]1(O)C2=O (mixture of isomers)", "°C", 10.7]
]}

The values you see were collected from ChEMBL document CHEMBL1806460.
